assay: Stability of pure lycopene isomers in n-hexane during storage at room temperature; type: physicochemical; details: n-hexane, room temperature, absence of light, 5 days

SMILES_RECORD: CC(C)=CCC/C(C)=C/C=C/C(C)=C/C=C/C(C)=C/C=C/C=C(C)/C=C/C=C(C)/C=C/C=C(\C)CCC=C(C)C
concentration (% of total isomers) x-Z: 5.1 % of total isomers
//
SMILES_RECORD: CC(C)=CCC\C(C)=C/C=C/C(C)=C/C=C/C(C)=C/C=C/C=C(C)/C=C/C=C(C)/C=C/C=C(\C)CCC=C(C)C
concentration (% of total isomers) x-Z: 27.7 % of total isomers
//
SMILES_RECORD: CC(C)=CCC/C(C)=C/C=C/C(C)=C\C=C\C(C)=C\C=C\C=C(C)\C=C\C=C(C)\C=C\C=C(/C)CCC=C(C)C
concentration (% of total isomers) x-Z: 8.6 % of total isomers
//
SMILES_RECORD: CC(C)=CCC/C(C)=C/C=C/C(C)=C/C=C/C(C)=C\C=C\C=C(C)\C=C\C=C(C)\C=C\C=C(/C)CCC=C(C)C
concentration (% of total isomers) x-Z: 4.3 % of total isomers
